- Tested on: RXF 393
- Test Method Notes: NCI tumour cell line growth inhibition, 48 h
Calls of active or inactive are those of the source. No stated cut-off is given here; in the data, active = GI50 up to about 1.1 µM and inactive = higher.
Value Kind: GI50

Below are worked cases with known answers.
>>> meas_value("C=C1C(=O)C23CC1C[C@H](OC(C)=O)C2C1(C)C(OC(C)=O)C[C@H](O)C(C)(C)[C@H]1C(O)[C@@H]3OC(C)=O (some centres undefined)")
"7.24 µM (inactive)"
>>> meas_value("CN(C)C(=O)C(F)(F)C(c1ccccc1Br)C1C(=O)N(C)C(=O)N(C)C1=O (centres undefined)")
"> 100 µM (inactive)"
>>> meas_value("C[C@]12CC[C@@H]3c4cc(I)c(O)cc4CC[C@H]3[C@@H]1CC[C@@H]2O")
"6.07 µM (inactive)"

Consider the record given below.
Endpoint output: GI50 of `Cc1nn(-c2ccccc2)c2nc(S)cnc12` . Value? > 100 µM (inactive)

----------
- Test system: HCC 2998
- Test Method Notes: NCI tumour cell line growth inhibition, 48 h
The source made the active and inactive calls. Rule as the data show it: active = GI50 up to about 1.1 µM and inactive = higher.
Your response should consist of one outcome taken from 1 (active), 0 (inactive)

>>> discrete_label("CCN(CC)c1ccc(/C=C/C(=O)c2cc(C(C)(C)C)c(O)c(C(C)(C)C)c2)cc1")
0
>>> discrete_label("CCc1nc(N)nc(N)c1-c1ccc(N2CCNCC2)cc1")
0
>>> discrete_label("CC(C)(CN1CCCCC1)C(/C=C/c1ccc(Cl)cc1)=N\\NC(=O)N/N=C(/C=C/c1ccc(Cl)cc1)C(C)(C)CN1CCCCC1")
0
>>> discrete_label("Clc1cc2nc(C3CCCO3)[nH]c2cc1Cl (centres undefined)")
0
>>> discrete_label("C[n+]1c2ccccc2n2c3ccccc3c(NCc3ccco3)c(C#N)c21")
1
>>> discrete_label("COc1cc2cc3c4c(cc(OC)c(OC)c4c2cc1OC)CCN3")
0
>>> discrete_label("COc1ccc(N2N=NN(C(C)C)/C2=C(/Cl)c2nnnn2-c2ccc(OC)cc2)cc1")
0
>>> discrete_label("COc1cc(OC)cc(-c2nc(O)c3ccccc3n2)c1")
0

Consider the additional molecule presented here.
Recorded call for COc1ccc(C(OCC2OC(n3cc(C)c(=O)[nH]c3=O)CC2n2cc(Cn3cc(Br)c(=O)[nH]c3=O)nn2)(c2ccccc2)c2ccccc2)cc1 (centres undefined) ? 0

----------
GI50 values by entry
- Tested on: NCI-H23
- Test Method Notes: NCI tumour cell line growth inhibition, 48 h
The source made the active and inactive calls. Rule as the data show it: active = GI50 up to about 1.1 µM and inactive = higher.

>>> meas_value("CC(=O)N(C(=O)CC(=O)N1N=C(C)C(/N=N/c2cccc([N+](=O)[O-])c2)C1=O)c1ccc(Cl)cc1 (stereo unspecified)")
"7.03 µM (inactive)"
>>> meas_value("Oc1cc(-c2cccc(Cl)c2)nc2ncccc12")
"1.54 µM (inactive)"
>>> meas_value("CN(CCc1ccccn1)c1ccc2c(c1)Cc1ccccc1-2")
"27.7 µM (inactive)"
>>> meas_value("Cc1nn(-c2ccccc2)c2nc(S)cnc12")
"> 100 µM (inactive)"
>>> meas_value("COc1ccccc1C1CC(=O)CC(c2ccccc2OC)C12C(=O)NC(=S)NC2=O (stereo unspecified)")
"> 100 µM (inactive)"

Suppose we examine the molecule CCOC(=O)C1Oc2ccc([N+](=O)[O-])cc2C1(C)O (stereo unspecified) ; what GI50 value has been reported? > 100 µM (inactive)
